target: Human recombinant PDE2A (hPDE2A) (Homo sapiens, UniProt O00408); construct: His tag (inferred from metal chelate purification); made in house; host or cells: Sf9 insect cells (baculovirus); experiment: In vitro assay PDE2A (SPA, 3H-cGMP hydrolysis); type: biochemical; conditions: read-out: hPDE2A pIC50 (converted)
Sequence (O00408 whole entry): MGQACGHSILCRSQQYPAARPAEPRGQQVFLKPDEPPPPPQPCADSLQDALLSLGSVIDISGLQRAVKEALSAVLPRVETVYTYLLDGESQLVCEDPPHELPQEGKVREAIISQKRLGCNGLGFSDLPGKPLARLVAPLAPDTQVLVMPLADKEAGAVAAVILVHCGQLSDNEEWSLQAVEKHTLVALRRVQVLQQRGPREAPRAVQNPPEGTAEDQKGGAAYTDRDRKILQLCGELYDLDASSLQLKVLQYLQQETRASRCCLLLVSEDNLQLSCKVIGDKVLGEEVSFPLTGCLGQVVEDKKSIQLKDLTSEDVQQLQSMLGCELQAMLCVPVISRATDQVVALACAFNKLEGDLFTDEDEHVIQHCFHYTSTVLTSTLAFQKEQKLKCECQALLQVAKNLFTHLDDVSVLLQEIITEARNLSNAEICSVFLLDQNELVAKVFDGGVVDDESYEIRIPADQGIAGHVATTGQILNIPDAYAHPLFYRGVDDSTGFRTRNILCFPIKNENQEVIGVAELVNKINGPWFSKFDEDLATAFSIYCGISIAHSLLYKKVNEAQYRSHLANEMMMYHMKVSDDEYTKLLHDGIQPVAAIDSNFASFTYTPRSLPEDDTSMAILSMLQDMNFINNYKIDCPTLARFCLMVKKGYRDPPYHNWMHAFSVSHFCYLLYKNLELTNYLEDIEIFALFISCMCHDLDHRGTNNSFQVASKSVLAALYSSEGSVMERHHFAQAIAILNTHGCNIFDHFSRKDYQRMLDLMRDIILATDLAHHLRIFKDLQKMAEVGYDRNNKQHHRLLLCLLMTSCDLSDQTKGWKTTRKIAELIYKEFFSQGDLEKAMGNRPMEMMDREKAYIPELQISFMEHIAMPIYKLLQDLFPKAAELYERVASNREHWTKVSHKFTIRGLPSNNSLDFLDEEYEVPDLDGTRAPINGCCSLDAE
With a cut-off of 5 nM, any IC50 strictly below it is called 1; any IC50 meeting it or above is called 0.

is_below(IC50, 5 nM) for Cc1cnoc1C(=O)N1CC[C@@H](C)[C@H](c2cc(C(F)F)nc3ncnn23)C1 ? 0

I'd appreciate it if you could check whether C[C@@H]1CCN(C(=O)c2ccc(O)nn2)C[C@H]1c1cc(C(F)F)nc2ncnn12 has IC50 smaller than 5 nM. 0

Consider the compound CC(=O)N1CCc2cc(C(=O)N3CCC[C@@](C)(c4cc(C(F)F)nc5ncnn45)C3)ccc21 (single isomer, unassigned) . Is its IC50 strictly less than 5 nM? 0

Does the reported IC50 of C[C@@H]1CCN(C(=O)c2ccc(F)c(O)c2)C[C@H]1c1cc(C(F)F)nc2ncnn12 stay below 5 nM? 0

Does the reported IC50 of C[C@@H]1CCN(C(=O)c2ccn3cccc3c2)C[C@H]1c1cc(C(F)F)nc2ncnn12 stay below 5 nM? 1

Please determine if C[C@@H]1CCN(C(=O)c2ccc(OC(F)F)c(F)c2)C[C@H]1c1cc(C(F)F)nc2ncnn12 is below 5 nM in terms of IC50. 0

Quick check: does COc1ccc2c(c1)cc(C(=O)N1CC[C@@H](C)[C@H](c3cc(C(F)F)nc4ncnn34)C1)n2C have IC50 under 5 nM? 1

Say whether its IC50 is strictly beneath 5 nM. Entry: COc1ccc(C(=O)N2CC[C@@H](C)[C@H](c3cc(C(F)F)nc4ncnn34)C2)cc1C#N 1

Quick check: IC50 of Cc1coc2ccc(C(=O)N3CC[C@@H](C)[C@H](c4cc(C(F)F)nc5ncnn45)C3)cc12 under 5 nM? 1

Please indicate whether the reported IC50 of Cc1cc(C(=O)N2CC[C@@H](C)[C@H](c3cc(C(F)F)nc4ncnn34)C2)cc(OC(C)C)n1 is strictly below 5 nM. 1

Just wondering, is IC50 of C[C@@H]1CCN(C(=O)c2c[nH]c3ccc(F)cc23)C[C@H]1c1cc(C(F)F)nc2ncnn12 below 5 nM? 1

Problem: For the compound Cn1ccc2cc(C(=O)N3[C@H]4CC[C@H](c5cc(C(F)F)nc6ncnn56)[C@@H]3CC4)ccc21 , is IC50 under 5 nM? 1

Please indicate whether the reported IC50 of Cc1cc(C(=O)N2[C@H]3CC[C@H](c4cc(C(F)F)nc5ncnn45)[C@@H]2CC3)cc(C(F)(F)F)n1 is strictly below 5 nM. 0

# TODO verify IC50 < 5 nM strictly for this compound: Cc1csc(C(=O)N2CCC[C@](C)(c3cc(C(F)F)nc4ncnn34)C2)c1 (single isomer, unassigned) 0

Check if IC50 falls below 5 nM for Cc1cc(C(=O)N2[C@H]3CC[C@H](c4cc(C(F)F)nc5ncnn45)[C@@H]2CC3)ccc1Cl . 1

Decide: IC50 of Cc1csc2ccc(C(=O)N3CC[C@@H](C)[C@H](c4cc(C(F)F)nc5ncnn45)C3)nc12 strictly below 5 nM? 1

Quick check: does Cc1cc([C@@H]2CN(C(=O)c3cc4cccnc4nc3C(F)(F)F)CC[C@H]2C)n2ncnc2n1 have IC50 under 5 nM? 0

Please indicate whether the reported IC50 of Cc1ccc(C(=O)N2[C@H]3CC[C@H](c4cc(C(F)F)nc5ncnn45)[C@@H]2CC3)s1 is strictly below 5 nM. 0

Hi there! Is IC50 for O=C(c1cnc2c(Cl)cccc2c1)N1[C@H]2CC[C@H](c3cc(C(F)F)nc4ncnn34)[C@@H]1CC2 below 5 nM, do you know? 1

IC50 under 5 nM? Item: Cc1nc(C2CC2)cc(C(=O)N2CC[C@@H](C)[C@H](c3cc(C(F)F)nc4ncnn34)C2)c1F 1

Input Cc1cc([C@@H]2CN(C(=O)c3cc(Cl)ncc3Cl)CC[C@H]2C)n2ncnc2n1 ; condition: IC50 strictly below 5 nM. Does it hold? 1

Dear reviewer, please state whether C[C@@H]1CCN(C(=O)c2ccc(F)c(OC(F)F)c2)C[C@H]1c1cc(C(F)F)nc2ncnn12 has IC50 strictly beneath 5 nM. 0

Strictly below 5 nM: is that where IC50 of C[C@@H]1CCN(C(=O)c2ccc(O)c(F)c2)C[C@H]1c1cc(C(F)F)nc2ncnn12 sits? 1

Does C[C@@H]1CCN(C(=O)c2ccc(Br)cn2)C[C@H]1c1cc(C(F)F)nc2ncnn12 have IC50 strictly under 5 nM? 0

Identify whether the compound Cc1cc(C(=O)N2CC[C@@H](C)[C@H](c3cc(C(F)F)nc4ncnn34)C2)nc(C)n1 records IC50 below 5 nM. 0

Just wondering, is IC50 of C[C@@H]1CCN(C(=O)c2ccc3nc(N)sc3c2)C[C@H]1c1cc(C(F)F)nc2ncnn12 below 5 nM? 1

Strictly below 5 nM: is that where IC50 of O=C(c1ccc2ncsc2c1)N1[C@H]2CC[C@H](c3cc(C(F)F)nc4ncnn34)[C@@H]1CC2 [Compound 25a] sits? 1

IC50 under 5 nM? Item: COc1cc(C(=O)N2CC[C@@H](C)[C@H](c3cc(C(F)F)nc4ncnn34)C2)cc(OC)n1 1
